# Lookup of reported viability, T/C keyed by entry
- System: MPNST complex spheroid with HUVEC/MSC, growth, % test/control
- test-details: Anticancer human tumor MPNST cell line growth inhibition [Asc];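 also: compounds left on spheroids for seven days before reading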
- measurement-parameters: second compound 0.0949 µM; first compound 0.1 µM; active compounds read low
The reply should contain only the number, in %.

Worked set:
molecule: CCN1CCN(Cc2ccc(Nc3ncc(F)c(-c4cc(F)c5nc(C)n(C(C)C)c5c4)n3)nc2)CC1 + CCN1C(C(=O)NC23CCC(C(=O)O)(CC2)CC3)C(c2cccc(Cl)c2F)C2(C(=O)Nc3cc(Cl)ccc32)C12CCCCC2
experimental-target: MPNST complex spheroid with HUVEC/MSC, growth, % test/control
uom: %
viability, T/C: 106

molecule: C#Cc1c(F)ccc2cc(O)cc(-c3ncc4c(N5CC6CCC(C5)N6)nc(OCC56CCCN5CC(F)C6)nc4c3F)c12 (centres undefined) + CCN1C(C(=O)NC23CCC(C(=O)O)(CC2)CC3)C(c2cccc(Cl)c2F)C2(C(=O)Nc3cc(Cl)ccc32)C12CCCCC2
experimental-target: MPNST complex spheroid with HUVEC/MSC, growth, % test/control
uom: %
viability, T/C: 83.3

molecule: O=C(c1ccc(F)c(F)c1Nc1ccc(I)cc1F)N1CC(O)([C@@H]2CCCCN2)C1 + CCN1C(C(=O)NC23CCC(C(=O)O)(CC2)CC3)C(c2cccc(Cl)c2F)C2(C(=O)Nc3cc(Cl)ccc32)C12CCCCC2
experimental-target: MPNST complex spheroid with HUVEC/MSC, growth, % test/control
uom: %
viability, T/C: 84.9

Now consider a different molecule.
Inquiry: Please tell me: viability, T/C of NC1CCC(NC2CC2c2ccccc2)CC1 (centres undefined) + CCN1C(C(=O)NC23CCC(C(=O)O)(CC2)CC3)C(c2cccc(Cl)c2F)C2(C(=O)Nc3cc(Cl)ccc32)C12CCCCC2 , system MPNST complex spheroid with HUVEC/MSC, growth, % test/control?
Reply text: 82.7
